B1: library; a variant is named by its letters at N, in order (parent)
chain: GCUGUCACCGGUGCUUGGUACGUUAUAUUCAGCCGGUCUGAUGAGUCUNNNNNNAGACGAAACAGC

# Variants of: B1
# Experiment notes: normalized RNA/DNA level without ligand (relative to sTRSVctl = 100) (log10 (% of sTRSVctl)); HEK293T overexpressing SLC46A1; higher = less ribozyme self-cleavage, higher mRNA level
# Setup conditions: without (6R,S)-folinic acid; ligand present: no
Kind request: treat 2 as inclusive, so normalized RNA/DNA level without ligand (log10) at 2 or higher is Y, anything lower is N.

INPUT: Assess whether reported normalized RNA/DNA level without ligand (log10) for "GAUAUG" sits at 2 or higher.
OUTPUT: N
